Reference source for all entries: patent US20220233706A1

# target.entity: T1, HER2 immobilised on a Biacore chip (UniProt P04626 23-652, limits assumed)
# T1 construct: also called immobilised HER2 target antigen (Biacore SPR); HER2 chip
# protocol.notes: Biacore SPR, HER2 amine-coupled to the chip

{"binder": "scFv (TCT1067)-Auristatin-F-C5 DAR 11.9 (scFv, Auristatin F-C5 on lysine residues; DAR 13.4 by AAA, 10.4 by MS, average 11.9, also called TCT1067-AF-C5 ADC 3) scFv: SGSGGSGQVQLVQSGAEVKKPGESLKISCKGSGYSFTSYWIAWVRQMPGKGLEYMGLIYPGDSDTKYSPSFQGQVTISVDKSVSTAYLQWSSLKPSDSAVYFCARHDVGYCTDRTCAAWPEWLGVWGQGTLVTVSSGGGGSGGGGSGGGGSQSVLTQPPSVSAAPGQKVTISCSGSSSNIGNNYVSWYQQLPGTAPKLLIYGHTNRPAGVPDRFSGSKSGTSASLAISGFRSEDEADYYCASWDYTLSGWVFGGGTKLTVLMASMTGGQQMG", "output.unit": "M⁻¹ s⁻¹", "kon": 21700}
{"binder": "scFv (TCT1067)-Auristatin-F-C5 DAR 3.3 (scFv, Auristatin F-C5 on lysine residues; DAR 3.64 by AAA, 2.9 by MS, average 3.3, also called TCT1067-AF-C5 ADC 1) scFv: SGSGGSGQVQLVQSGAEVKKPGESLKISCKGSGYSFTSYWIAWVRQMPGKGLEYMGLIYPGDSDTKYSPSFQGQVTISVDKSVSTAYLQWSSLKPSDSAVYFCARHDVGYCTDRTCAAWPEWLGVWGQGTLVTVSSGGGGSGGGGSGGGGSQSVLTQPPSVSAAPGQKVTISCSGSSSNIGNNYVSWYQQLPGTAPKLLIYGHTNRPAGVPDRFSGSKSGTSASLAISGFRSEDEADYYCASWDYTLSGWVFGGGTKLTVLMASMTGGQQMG", "output.unit": "M⁻¹ s⁻¹", "kon": 556000}
